experimental system: human TLR9 (Homo sapiens)
Sequence (Q9NR96 26-1032): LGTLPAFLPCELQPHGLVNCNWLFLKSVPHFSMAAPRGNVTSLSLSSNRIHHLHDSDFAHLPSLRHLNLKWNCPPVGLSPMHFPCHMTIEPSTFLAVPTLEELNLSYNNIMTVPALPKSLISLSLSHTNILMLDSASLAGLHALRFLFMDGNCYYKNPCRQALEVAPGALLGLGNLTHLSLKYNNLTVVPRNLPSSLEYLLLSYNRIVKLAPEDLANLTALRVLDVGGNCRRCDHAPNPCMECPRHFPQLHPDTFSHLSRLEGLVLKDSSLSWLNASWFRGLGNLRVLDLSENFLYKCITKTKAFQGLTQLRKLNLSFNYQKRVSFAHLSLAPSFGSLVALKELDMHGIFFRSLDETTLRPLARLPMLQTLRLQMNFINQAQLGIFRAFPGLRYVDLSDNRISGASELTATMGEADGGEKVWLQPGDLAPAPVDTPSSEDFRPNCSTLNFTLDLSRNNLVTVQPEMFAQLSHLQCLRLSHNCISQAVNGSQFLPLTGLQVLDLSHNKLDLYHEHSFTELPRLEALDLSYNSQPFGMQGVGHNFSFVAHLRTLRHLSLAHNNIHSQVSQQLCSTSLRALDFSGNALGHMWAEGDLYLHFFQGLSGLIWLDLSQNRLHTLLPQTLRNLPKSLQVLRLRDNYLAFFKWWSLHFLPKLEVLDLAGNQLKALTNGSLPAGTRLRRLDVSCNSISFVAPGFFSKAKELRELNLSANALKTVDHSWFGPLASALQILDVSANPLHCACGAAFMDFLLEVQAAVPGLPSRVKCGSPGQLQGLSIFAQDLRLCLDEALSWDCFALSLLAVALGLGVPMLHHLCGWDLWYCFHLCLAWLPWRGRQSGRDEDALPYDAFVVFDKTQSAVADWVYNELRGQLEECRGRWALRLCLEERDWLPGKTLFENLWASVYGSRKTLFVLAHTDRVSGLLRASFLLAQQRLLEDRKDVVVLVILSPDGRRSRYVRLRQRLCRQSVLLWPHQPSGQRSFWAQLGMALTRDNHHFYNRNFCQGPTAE
test protocol: TLR9 inhibition reporter assay (HEK-Blue, SEAP)
particulars: HEK-Blue cells overexpressing human TLR9, ODN2006 5 nM, 22 hour incubation
We label by threshold. Values of IC50 strictly beneath 2 µM are y. Values of 2 µM and up are n.

Below are worked cases with known answers.
{"compound": "Cc1c(-c2[nH]c3ccc(C4CCN(CCCC(F)(F)F)CC4)cc3c2C(C)C)cn2cnnc2c1Cl [Example 48]", "experimental system": "human TLR9 (Homo sapiens)", "group label": "n"}
{"compound": "Cc1cc(-c2[nH]c3ccc(C4CCN(Cc5ncn(C)n5)CC4)cc3c2C(C)C)c(C)n2cnnc12 [Example 40]", "experimental system": "human TLR9 (Homo sapiens)", "group label": "n"}
{"compound": "Cc1nnc2ccc(-c3[nH]c4ccc(C5CCN(Cc6ncn(C)n6)CC5)cc4c3C(C)C)cn12 [Example 22]", "experimental system": "human TLR9 (Homo sapiens)", "group label": "n"}
{"compound": "COc1cc(-c2[nH]c3ccc(C4CCN(C5CCOCC5)CC4)cc3c2C(C)C)cn2cnnc12 [Example 88]", "experimental system": "human TLR9 (Homo sapiens)", "group label": "y"}
{"compound": "COCc1nnc2ccc(-c3[nH]c4ccc(C5CCNCC5)cc4c3C(C)C)cn12 [Example 7]", "experimental system": "human TLR9 (Homo sapiens)", "group label": "n"}

// query # check: IC50 < 2 µM for Cc1c(-c2[nH]c3ccc(C4CCN(CCS(C)(=O)=O)CC4)cc3c2C(C)C)cn2cnnc2c1C [Example 43]
// result n

// query # check: IC50 < 2 µM for Cc1c(-c2[nH]c3ccc(C4CCN(C5CC(C)(C)OC(C)(C)C5)CC4)cc3c2C(C)C)cn2cnnc2c1C [Example 100]
// result n

// query # check: IC50 < 2 µM for Cc1c(-c2[nH]c3ccc(C4CCN(C)CC4)cc3c2C(C)C)cn2cnnc2c1C [Example 98]
// result y

* * *

experimental system: human TLR8 (Homo sapiens, UniProt Q9NR97)
Sequence (Q9NR97 27-1041): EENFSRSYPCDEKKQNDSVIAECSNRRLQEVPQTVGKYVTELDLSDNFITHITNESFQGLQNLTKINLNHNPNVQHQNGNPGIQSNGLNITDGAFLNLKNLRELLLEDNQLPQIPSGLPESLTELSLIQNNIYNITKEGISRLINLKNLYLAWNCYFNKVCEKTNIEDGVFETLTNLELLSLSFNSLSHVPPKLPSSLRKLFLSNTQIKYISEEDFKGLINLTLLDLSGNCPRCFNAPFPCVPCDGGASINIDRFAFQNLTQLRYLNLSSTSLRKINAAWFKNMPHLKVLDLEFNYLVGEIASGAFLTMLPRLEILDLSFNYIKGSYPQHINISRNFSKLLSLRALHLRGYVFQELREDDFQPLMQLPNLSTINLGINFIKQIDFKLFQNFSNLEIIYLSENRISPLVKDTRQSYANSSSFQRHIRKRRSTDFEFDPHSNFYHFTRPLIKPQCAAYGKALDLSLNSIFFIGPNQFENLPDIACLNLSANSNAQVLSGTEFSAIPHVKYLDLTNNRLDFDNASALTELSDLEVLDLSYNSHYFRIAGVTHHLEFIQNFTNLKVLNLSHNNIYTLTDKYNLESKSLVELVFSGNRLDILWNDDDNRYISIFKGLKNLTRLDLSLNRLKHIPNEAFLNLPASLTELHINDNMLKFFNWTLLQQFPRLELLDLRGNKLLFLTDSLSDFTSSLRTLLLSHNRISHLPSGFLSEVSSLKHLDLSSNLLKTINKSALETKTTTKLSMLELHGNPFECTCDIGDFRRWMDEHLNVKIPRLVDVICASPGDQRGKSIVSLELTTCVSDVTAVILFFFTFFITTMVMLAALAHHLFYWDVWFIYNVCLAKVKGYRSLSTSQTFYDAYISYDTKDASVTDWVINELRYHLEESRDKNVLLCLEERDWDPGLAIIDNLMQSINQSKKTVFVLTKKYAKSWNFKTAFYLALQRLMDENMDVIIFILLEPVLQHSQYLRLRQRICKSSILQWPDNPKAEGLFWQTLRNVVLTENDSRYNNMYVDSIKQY
test protocol: TLR8 inhibition reporter assay (HEK-Blue, SEAP)
particulars: HEK-Blue cells overexpressing human TLR8, R848 15.9 μM, 22 hour incubation
measured endpoint: IC50 (nM)
Write down the numeric answer in nM and omit the unit.

Guide cases for IC50, answers given:
{"smiles data": "Cc1cc(-c2[nH]c3ccc(C4CCNCC4)cc3c2C(C)C)cn2cnnc12", "IC50 [nM]": 12.5}
{"smiles data": "Cc1cc(-c2[nH]c3ccc(C4CCN(C5CCOCC5)CC4)cc3c2C(C)C)c(C)n2cnnc12", "IC50 [nM]": 3.6}
{"smiles data": "Cc1cc(-c2[nH]c3ccc(C4CCNCC4)cc3c2C(C)C)cn2c(C)nnc12", "IC50 [nM]": 18.9}

Now consider a different compound.
// query Which IC50 is listed for Cc1c(-c2[nH]c3ccc(C4CCN(C5CC(C)(C)OC(C)(C)C5)CC4)cc3c2C(C)C)cn2cnnc2c1C ?
// result 31.6

Provenance of the data: patent US11130756B2
